tested-system: PHD2 (Homo sapiens)
Sequence (Q9GZT9 whole entry): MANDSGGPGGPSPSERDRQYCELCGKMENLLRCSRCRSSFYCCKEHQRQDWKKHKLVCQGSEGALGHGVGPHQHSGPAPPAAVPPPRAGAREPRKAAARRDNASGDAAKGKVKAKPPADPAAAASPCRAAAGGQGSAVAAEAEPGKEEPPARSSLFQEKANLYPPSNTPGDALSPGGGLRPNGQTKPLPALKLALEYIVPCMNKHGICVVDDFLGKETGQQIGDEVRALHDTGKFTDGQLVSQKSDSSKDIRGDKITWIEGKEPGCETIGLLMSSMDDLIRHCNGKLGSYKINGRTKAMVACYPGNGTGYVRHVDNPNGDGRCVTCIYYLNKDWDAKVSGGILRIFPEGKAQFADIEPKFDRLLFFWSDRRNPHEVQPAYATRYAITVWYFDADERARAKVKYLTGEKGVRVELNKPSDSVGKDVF
assay-protocol: Assay for HIF-PHD2 catalytic activity (time-resolved fluorescence, VHL complex detection)
measurement-context: FLAG-tagged full length PHD2; 0.2 μM 2-oxoglutarate, 0.5 μM HIF-1α peptide; read-out: PHD2 Activity (PHD2 binding activity expressed as IC50)
pIC50: −log10 of the molar value.
measured-property: pIC50

stdin: GET /values?readout=pIC50&item= O=C(O)CN1CCC2(CC1)C(=O)N(c1ccc(-c3ccccc3)cc1)c1ncc(C(=O)O)cc12 [Example 10]
stdout: 8.00 to 8.30

stdin: Same for O=C(O)CN1CCC2(CC1)C(=O)N(c1ccc(-c3ccccc3)cc1)c1ncccc12 [Example 9]
stdout: 7.30 to 8.00

stdin: How about this compound: N#Cc1cnc2c(c1)C1(CCN(CC(=O)O)CC1)C(=O)N2c1ccc(-c2ccccc2)cc1 [Example 8]
stdout: 7.30 to 8.00

stdin: Record: O=C(O)CN1CCC2(CC1)C(=O)N(c1ccc(-c3ccccc3)cc1)c1ncc(Br)cc12 [Example 7]
stdout: 7.30 to 8.00

stdin: What do you get for Cc1cccnc1CN1CCC2(CC1)C(=O)N(c1ccc(-c3ccccc3)cc1)c1nc(C(=O)O)ccc12 [Example 6] ?
stdout: ≥ 8.30

stdin: Field entry: Cc1cccnc1CN1CCC2(CC1)C(=O)N(c1ccc(-c3ccccc3)cc1)c1ncc(C#N)cc12 [Example 4]
stdout: 8.00 to 8.30

stdin: Moving on to Cc1cccnc1CN1CCC2(CC1)C(=O)N(c1ccc(-c3ccccc3)cc1)c1nc(C#N)ccc12 [Example 3]
stdout: ≥ 8.30

stdin: How about this compound: Cc1cccnc1CN1CCC2(CC1)C(=O)N(c1ccc(-c3ccccc3)cc1)c1ncc(C(=O)O)cc12 [Example 5]
stdout: ≥ 8.30
